These measurements were taken from paper PMC6362038.

Assay: Resistance to protease digestion with trypsin
Type: in vitro ADME
Settings: 10 µM peptide in 2.5 × 10^−6 w/v% trypsin/PBS, 37 °C, RP-HPLC, α-CHCA internal standard, read-out: intact peptide after incubation with trypsin
Numbered stars: 1 amine (or outer) side, 2 acyl side, 3 side chain; on linkers, the order of the positions; unused ones are H or OH. Square brackets hold non-standard residues; d marks the D form. Peptide text beside a SMILES is read from it. * marks the point of attachment. 5FAM = O=C1OC2(c3ccc(O)cc3Oc3cc(O)ccc32)c2ccc(C(=O)*)cc21; X1 = CO[C@H]1CC(N[*:1])(C(=O)[*:2])C[C@@H]1OC; αMeL = CC(C)C[C@](C)(N)C(=O)O; Ac5c = NC1(C(=O)O)CCCC1
Provide the recorded remaining at 4 h, 10 µM for the entries that follow.

Worked examples follow.
molecule	remaining at 4 h, 10 µM
N=C(N)NCCC[C@H](NC(=O)CNC(=O)c1ccc2c(c1)C(=O)OC21c2ccc(O)cc2Oc2cc(O)ccc21)C(=O)N[C@@H](CCCNC(=N)N)C(=O)NC1(C(=O)N[C@@H](CCCNC(=N)N)C(=O)N[C@@H](CCCNC(=N)N)C(=O)NC2(C(=O)N[C@@H](CCCNC(=N)N)C(=O)N[C@@H](CCCNC(=N)N)C(=O)NC3(C(N)=O)CCCC3)CCCC2)CCCC1 [Ac5c peptide] (5FAM-GRR[Ac5c]RR[Ac5c]RR[Ac5c]-NH2)	~80%
CO[C@H]1CC(NC(=O)[C@H](CCCNC(=N)N)NC(=O)[C@H](CCCNC(=N)N)NC(=O)C2(NC(=O)[C@H](CCCNC(=N)N)NC(=O)[C@H](CCCNC(=N)N)NC(=O)C3(NC(=O)[C@H](CCCNC(=N)N)NC(=O)[C@H](CCCNC(=N)N)NC(=O)CNC(=O)c4ccc5c(c4)C(=O)OC54c5ccc(O)cc5Oc5cc(O)ccc54)C[C@H](OC)[C@@H](OC)C3)C[C@H](OC)[C@@H](OC)C2)(C(N)=O)C[C@@H]1OC [Ac5c^dOM peptide] (5FAM-GRR[X1]RR[X1]RR[X1]-NH2)	~80%
CC(C)C[C@](C)(NC(=O)[C@H](CCCNC(=N)N)NC(=O)[C@H](CCCNC(=N)N)NC(=O)[C@](C)(CC(C)C)NC(=O)[C@H](CCCNC(=N)N)NC(=O)[C@H](CCCNC(=N)N)NC(=O)[C@](C)(CC(C)C)NC(=O)[C@H](CCCNC(=N)N)NC(=O)[C@H](CCCNC(=N)N)NC(=O)CNC(=O)c1ccc2c(c1)C(=O)OC21c2ccc(O)cc2Oc2cc(O)ccc21)C(N)=O [(αMe)Leu peptide] (5FAM-GRR[αMeL]RR[αMeL]RR[αMeL]-NH2)	~80%

Query block: Need remaining at 4 h, 10 µM of CC(C)C[C@H](NC(=O)[C@H](CCCNC(=N)N)NC(=O)[C@H](CCCNC(=N)N)NC(=O)[C@H](CC(C)C)NC(=O)[C@H](CCCNC(=N)N)NC(=O)[C@H](CCCNC(=N)N)NC(=O)[C@H](CC(C)C)NC(=O)[C@H](CCCNC(=N)N)NC(=O)[C@H](CCCNC(=N)N)NC(=O)CNC(=O)c1ccc2c(c1)C(=O)OC21c2ccc(O)cc2Oc2cc(O)ccc21)C(N)=O [Leu peptide] (5FAM-GRRLRRLRRL-NH2) , thanks.
Result block: 0%
